FYI, the data here is from paper PMC11277489.

Provide the recorded activity at 10 µM for the entries that follow.
- System: A549/ATCC
- assayDetails: NCI60 one-dose screen (10 μM), Non-small Cell Lung Cancer
- Assay type: cell-based
- conditionInfo: Homo sapiens, A549, read-out: Growth percent rate
Field format: number, assumed %, no unit text.

Input: I would be grateful if you could share the reported activity at 10 µM for CCC12C=CCN3CCC4(c5ccc(OC)cc5N(C)C4C(O)(C(=O)OC)C1O)C32 (stereo not drawn) .
Output: 103

Input: Report activity at 10 µM for CCC12C=CCN3CCC4(c5cc(NC(=O)CN6CCN(Cc7ccc(F)cc7)CC6)c(OC)cc5N(C)C4C(O)(C(=O)OC)C1OC(C)=O)C32 (stereo not drawn) please.
Output: 89

Input: Which activity at 10 µM value belongs to CCC12C=CCN3CC[C@@]4(c5ccc(OC)cc5N(C)[C@H]4[C@@](O)(C(=O)OC)[C@@H]1OC(C)=O)[C@@H]32 (stereo partly drawn) ?
Output: 101

Input: # input compound: `CC[C@]12C=CCN3CC[C@@]4(c5ccc(OC)cc5N(C)[C@H]4[C@@](O)(C(=O)OC)[C@@H]1OC(=O)CCCN1CCN(C(c4ccc(F)cc4)c4ccc(F)cc4)CC1)[C@@H]32` ; wanted: its activity at 10 µM
Output: -65.4

Input: Which activity at 10 µM is reported for this compound? `CC[C@]12C=CCN3CC[C@@]4(c5ccc(OC)cc5N(C)[C@H]4[C@@](O)(C(=O)OC)[C@@H]1OC(=O)CCC(=O)N1CCN(C(=O)c4ccco4)CC1)[C@@H]32`
Output: 95.2

Input: Form field: reported activity at 10 µM of CCC12C=CCN3CCC4(c5cc(NC(=O)CN6CCN(Cc7ccc(C(F)(F)F)cc7)CC6)c(OC)cc5N(C)C4C(O)(C(=O)OC)C1OC(C)=O)C32 (stereo not drawn)
Output: 54.1
